- TEST_TARGET: transglutaminase 2 (TGase 2) (Homo sapiens)
- ASSAY_OVERVIEW: TGase 2 transpeptidase fluorescence assay: incorporation of KXD into N,N-dimethylated-casein (Std and FPC formats)
- Assay type: biochemical
- SETTINGS: qualitative comparison
PROPERTY: TGase 2 inhibitory activity, SAR comment in words (relative to parent compound)

[[record]]
structure_string = "NNC(=O)COc1nc2scc(-c3ccccc3)c2c(=O)n1-c1ccccc1"
assay_result = "decreased activity"

[[record]]
structure_string = "NNC(=O)CSc1nc2ccccc2c(=O)n1-c1ccccc1"
assay_result = "decreased activity"


----------
- TEST_TARGET: transglutaminase 2 (TGase 2) (Homo sapiens, UniProt P21980)
- Sequence (P21980 1-687): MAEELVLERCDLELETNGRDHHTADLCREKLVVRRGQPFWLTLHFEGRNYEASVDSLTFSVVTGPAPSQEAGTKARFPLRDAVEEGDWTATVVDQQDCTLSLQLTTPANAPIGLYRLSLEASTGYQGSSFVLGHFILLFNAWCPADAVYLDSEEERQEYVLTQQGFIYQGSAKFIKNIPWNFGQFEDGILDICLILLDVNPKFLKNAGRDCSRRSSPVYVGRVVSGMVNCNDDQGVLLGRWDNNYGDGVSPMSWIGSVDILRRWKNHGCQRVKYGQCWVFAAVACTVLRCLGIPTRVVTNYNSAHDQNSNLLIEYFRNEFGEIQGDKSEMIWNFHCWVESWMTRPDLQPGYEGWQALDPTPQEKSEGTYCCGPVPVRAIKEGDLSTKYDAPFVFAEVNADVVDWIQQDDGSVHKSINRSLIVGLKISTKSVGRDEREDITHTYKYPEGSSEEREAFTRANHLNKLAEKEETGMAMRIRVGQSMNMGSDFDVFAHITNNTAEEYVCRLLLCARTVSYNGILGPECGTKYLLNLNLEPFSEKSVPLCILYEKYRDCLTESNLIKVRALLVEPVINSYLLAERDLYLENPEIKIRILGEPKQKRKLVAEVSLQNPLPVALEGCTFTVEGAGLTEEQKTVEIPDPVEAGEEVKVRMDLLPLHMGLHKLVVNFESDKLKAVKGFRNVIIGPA
- ASSAY_OVERVIEW: TGase 2 transpeptidase fluorescence assay: incorporation of KXD into N,N-dimethylated-casein (Std and FPC formats)
- Type: biochemical
- SETTINGS: full progress curves (FPC); IC50=[I]/{(vc/vss)−1}, from steady-state velocity; read-out: IC50 (μM, FPC)
Label key: class 1 means IC50 under 0.2 µM; class 0 means IC50 of 0.2 µM or more.

[[record]]
compound = "NNC(=O)CSc1nc2scc(-c3ccccc3)c2c(=O)n1-c1cc(F)ccc1F [986-26]"
assigned_label = "class 0"

[[record]]
compound = "COc1ccccc1-c1csc2nc(SCC(=O)NN)n(-c3cccc(F)c3)c(=O)c12 [986-31]"
assigned_label = "class 1"

[[record]]
compound = "Cc1sc2nc(SCC(=O)NN)n(-c3cccc(F)c3)c(=O)c2c1-c1ccccc1F [986-40]"
assigned_label = "class 1"

[[record]]
compound = "NNC(=O)CSc1nc2scc(-c3ccccc3F)c2c(=O)n1-c1cccc(F)c1 [986-37]"
assigned_label = "class 1"

[[record]]
compound = "NNC(=O)CSc1nc2scc(-c3ccccc3)c2c(=O)n1-c1cc(F)cc(F)c1 [986-27]"
assigned_label = "class 0"

[[record]]
compound = "CC(C)c1csc2nc(SCC(=O)NN)n(-c3cccc(F)c3)c(=O)c12 [986-36]"
assigned_label = "class 0"

[[record]]
compound = "NNC(=O)CSc1nc2sc3c(c2c(=O)n1-c1cccc(F)c1)CCCC3 [986-42]"
assigned_label = "class 0"

[[record]]
compound = "NNC(=O)CSc1nc2scc(-c3ccccc3)c2c(=O)n1-c1cccc(F)c1 [986-19]"
assigned_label = "class 1"

[[record]]
compound = "Cc1sc2nc(SCC(=O)NN)n(-c3ccccc3)c(=O)c2c1-c1ccccc1 [986-13]"
assigned_label = "class 1"

[[record]]
compound = "CN1CCc2c(sc3nc(SCC(=O)NN)n(-c4cccc(F)c4)c(=O)c23)C1 [986-48]"
assigned_label = "class 0"

[[record]]
compound = "NNC(=O)CSc1nc2scc(-c3ccc(F)cc3)c2c(=O)n1-c1ccc(F)cc1 [986-09]"
assigned_label = "class 0"

[[record]]
compound = "NNC(=O)CSc1nc2scc(-c3ccc(F)cc3)c2c(=O)n1-c1ccccc1 [986-08]"
assigned_label = "class 0"

[[record]]
compound = "NNC(=O)CSc1nc2scc(-c3ccccc3)c2c(=O)n1-c1ccc(F)cc1 [986-07]"
assigned_label = "class 0"

[[record]]
compound = "NNC(=O)CSc1nc2sc(Cl)c(-c3ccccc3F)c2c(=O)n1-c1cccc(F)c1 [986-39]"
assigned_label = "class 1"

[[record]]
compound = "CC(C)c1sc2nc(SCC(=O)NN)n(-c3cccc(F)c3)c(=O)c2c1-c1ccccc1F [986-41]"
assigned_label = "class 0"

[[record]]
compound = "COc1cccc(-n2c(SCC(=O)NN)nc3scc(-c4ccccc4)c3c2=O)c1 [986-21]"
assigned_label = "class 0"

[[record]]
compound = "NNC(=O)CSc1nc2sc3c(c2c(=O)n1-c1cccc(F)c1)CCNC3 [986-47]"
assigned_label = "class 0"


----------
- TEST_TARGET: transglutaminase 2 (TGase 2) (Homo sapiens)
- ASSAY_OVERVIEW: TGase 2 transpeptidase fluorescence assay: incorporation of KXD into N,N-dimethylated-casein (Std and FPC formats)
- Assay type: biochemical
- SETTINGS: summary of FPC values; read-out: FPC IC50 values
PROPERTY: IC50

[[record]]
molecule = "Cc1sc2nc(SCC(=O)NN)n(-c3cccc(F)c3)c(=O)c2c1-c1ccccc1F [986-40]"
property = "IC50"
assay_result = "< 160 nM"

[[record]]
molecule = "NNC(=O)CSc1nc2scc(-c3ccccc3)c2c(=O)n1-c1cccc(F)c1 [986-19]"
property = "IC50"
assay_result = "< 160 nM"

[[record]]
molecule = "NNC(=O)CSc1nc2sc(Cl)c(-c3ccccc3F)c2c(=O)n1-c1cccc(F)c1 [986-39]"
property = "IC50"
assay_result = "< 160 nM"

[[record]]
molecule = "NNC(=O)CSc1nc2scc(-c3ccccc3F)c2c(=O)n1-c1cccc(F)c1 [986-37]"
property = "IC50"
assay_result = "< 160 nM"

[[record]]
molecule = "Cc1sc2nc(SCC(=O)NN)n(-c3ccccc3)c(=O)c2c1-c1ccccc1 [986-13]"
property = "IC50"
assay_result = "< 160 nM"

[[record]]
molecule = "COc1cccc(-c2csc3nc(SCC(=O)NN)n(-c4cccc(F)c4)c(=O)c23)c1 [986-32]"
property = "IC50"
assay_result = "< 160 nM"

[[record]]
molecule = "COc1ccccc1-c1csc2nc(SCC(=O)NN)n(-c3cccc(F)c3)c(=O)c12 [986-31]"
property = "IC50"
assay_result = "< 160 nM"


----------
- TEST_TARGET: transglutaminase 2 (TGase 2) (Homo sapiens, UniProt P21980)
- ASSAY_OVERVIEW: TGase 2 transpeptidase fluorescence assay: incorporation of KXD into N,N-dimethylated-casein (Std and FPC formats)
- Type: biochemical
- SETTINGS: standard format (Std): reactions terminated after 60 min, FI recorded, four-parameter fit
Entries annotated with measured IC50
PROPERTY: IC50 (µM)

[[record]]
structure_string = "CCCN1CCc2c(sc3nc(SCC(=O)NN)n(-c4cccc(F)c4)c(=O)c23)C1"
relational_operator = "="
assay_result = 6

[[record]]
structure_string = "NNC(=O)CSc1nc2scc(-c3ccccc3)c2c(=O)n1-c1ccc(Cl)cc1"
relational_operator = "="
assay_result = 1.8

[[record]]
structure_string = "NNC(=O)CSc1nc2scc(-c3ccccc3O)c2c(=O)n1-c1cccc(F)c1"
relational_operator = "="
assay_result = 1.4

[[record]]
structure_string = "CN(N)C(=O)CSc1nc2scc(-c3ccc(F)cc3)c2c(=O)n1-c1ccc(F)cc1"
relational_operator = ">"
assay_result = 20

[[record]]
structure_string = "NNC(=O)CSc1nc2scc(-c3ccc(F)cc3)c2c(=O)n1-c1ccc(F)cc1"
relational_operator = "="
assay_result = 1.5


----------
Entries annotated with measured IC50
- TEST_TARGET: transglutaminase 2 (TGase 2) (Homo sapiens)
- ASSAY_OVERVIEW: TGase 2 transpeptidase fluorescence assay: incorporation of KXD into N,N-dimethylated-casein (Std and FPC formats)
- Format: biochemical
- SETTINGS: standard format (Std): reactions terminated after 60 min, FI recorded, four-parameter fit
Counter-ions that a name gives are not always drawn.
PROPERTY: IC50 (µM)

[[record]]
compound = "O=C(O)CSc1nc2scc(-c3ccc(F)cc3)c2c(=O)n1-c1ccc(F)cc1"
units_label = "µM"
relational_operator = ">"
assay_result = 20

[[record]]
compound = "NNC(=O)CSc1nc2scc(-c3ccccc3)c2c(=O)n1-c1ccccc1"
units_label = "µM"
relational_operator = "="
assay_result = 0.8

[[record]]
compound = "NNC(=O)CSc1nc2sc3c(c2c(=O)n1-c1cccc(F)c1)C(c1ccccc1)CCC3 (stereo not drawn)"
units_label = "µM"
relational_operator = "="
assay_result = 0.93

[[record]]
compound = "CNC(=O)CSc1nc2scc(-c3ccc(F)cc3)c2c(=O)n1-c1ccc(F)cc1"
units_label = "µM"
relational_operator = ">"
assay_result = 20

[[record]]
compound = "CN(CC(=O)NN)c1nc2scc(-c3ccccc3)c2c(=O)n1-c1ccccc1"
units_label = "µM"
relational_operator = ">"
assay_result = 20

[[record]]
compound = "Cc1sc2nc(SCC(=O)NN)n(-c3ccccc3)c(=O)c2c1-c1ccccc1"
units_label = "µM"
relational_operator = "="
assay_result = 1.5

[[record]]
compound = "COc1ccccc1-n1c(SCC(=O)NN)nc2scc(-c3ccccc3)c2c1=O"
units_label = "µM"
relational_operator = "="
assay_result = 2

[[record]]
compound = "NCC(=O)CSc1nc2scc(-c3ccccc3)c2c(=O)n1-c1cccc(F)c1 [986-56, hydrochloride]"
units_label = "µM"
relational_operator = "="
assay_result = 5.3

[[record]]
compound = "NNC(=O)CSc1nc2sc3c(c2c(=O)n1-c1cccc(F)c1)C(Cc1ccccc1)CCC3 (stereo not drawn)"
units_label = "µM"
relational_operator = "="
assay_result = 2.3

